Target: c-KIT kinase (Homo sapiens, UniProt P10721)
Construct: human c-KIT (Thr544-Val976); GST (N); purchased Cell Signaling Technology HTScan c-KIT Kinase Assay Kit; host or cells: baculovirus expression system
Sequence (P10721 544-976): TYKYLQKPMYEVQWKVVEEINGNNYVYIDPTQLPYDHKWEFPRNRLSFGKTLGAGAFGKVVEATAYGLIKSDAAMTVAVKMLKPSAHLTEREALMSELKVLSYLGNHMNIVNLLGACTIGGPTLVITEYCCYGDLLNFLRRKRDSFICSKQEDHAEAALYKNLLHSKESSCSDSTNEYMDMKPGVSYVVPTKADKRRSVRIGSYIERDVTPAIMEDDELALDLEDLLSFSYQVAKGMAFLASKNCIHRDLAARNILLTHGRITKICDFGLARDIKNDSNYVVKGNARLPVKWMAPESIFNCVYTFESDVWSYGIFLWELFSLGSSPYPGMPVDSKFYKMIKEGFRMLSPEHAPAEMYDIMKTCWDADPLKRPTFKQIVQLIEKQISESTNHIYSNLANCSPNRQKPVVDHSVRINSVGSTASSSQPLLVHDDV
Test: c-KIT kinase DELFIA assay (HTScan c-KIT Kinase Assay Kit)
Type: biochemical
Conditions: 1 uM compound, 20 uM ATP
Record form. Attribute: inhibition at 1 µM. Fill in for each entry.
Give bare numbers, in %.

Recorded inhibition at 1 µM, per entry:
COMPOUND: O=C(Nc1ccc(Cl)c(C(F)(F)F)c1)Nc1ccc2[nH]c(-c3c4cccccc-4[nH]c3=O)nc2c1 [Compound B118]
UNIT_SYMBOL: %
inhibition at 1 µM: 36.8

COMPOUND: O=CN1CCCN(c2ccc3[nH]c(-c4c5cccccc-5[nH]c4=O)nc3c2)CC1 [Compound B88]
UNIT_SYMBOL: %
inhibition at 1 µM: 89.2

COMPOUND: O=c1[nH]c2cccccc-2c1-c1nc2cccnc2[nH]1 [Compound B15]
UNIT_SYMBOL: %
inhibition at 1 µM: 43.1

COMPOUND: O=c1[nH]c2cccccc-2c1-c1nc2cc(N3CCCN(c4ncccc4[N+](=O)[O-])CC3)ccc2[nH]1 [Compound B95]
UNIT_SYMBOL: %
inhibition at 1 µM: 82.6

COMPOUND: C[N+]1([O-])CC[N+]([O-])(c2ccc3[nH]c(-c4c5cccccc-5[nH]c4=O)nc3c2)CC1 (centres unmarked) [Compound B70]
UNIT_SYMBOL: %
inhibition at 1 µM: 86.6

COMPOUND: O=c1[nH]c2cccccc-2c1-c1nc2cc(N3CCCN(CCCF)CC3)ccc2n1CCCF [Compound B83]
UNIT_SYMBOL: %
inhibition at 1 µM: 19.7

COMPOUND: O=c1[nH]c2cccccc-2c1-c1nc2cc(F)ccc2[nH]1 [Compound B2]
UNIT_SYMBOL: %
inhibition at 1 µM: 57.9

// next item, inhibition at 1 µM requested
Problem: For the compound O=C(O)c1ccc2[nH]c(-c3c4cccccc-4[nH]c3=O)nc2c1 [Compound B7] , what inhibition at 1 µM is on record?
Result: 57.3
